Reported kon values are given for each entry in this list.
# Tested target: T1, human PD-1.Fc (human, UniProt Q15116 25-170, limits assumed)
# T1 construct: also called PD-1; Fc protein; PD-1.hFc; not shown: human IgG Fc fragment
# T1 sequence (Q15116 25-170 limits assumed): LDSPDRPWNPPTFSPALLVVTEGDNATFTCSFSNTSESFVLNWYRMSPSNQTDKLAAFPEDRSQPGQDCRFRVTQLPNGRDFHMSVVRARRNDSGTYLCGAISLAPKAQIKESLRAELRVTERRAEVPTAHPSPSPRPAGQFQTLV
# Protocol details: SPR, antibody captured on protein A, PD-1.Fc in flow
Field: numeric (M⁻¹ s⁻¹). Do not append units.

Below: 5 binders and their reported kon.
Binder	Unit of measure	kon
NB220 (Fc fusion, not shown: IgG4 constant region of vector pCDNA3.4-IgG4) heavy: QVQLQESGGGLLQAGDSLRLSCIVSGRTFSSYAIGWFRQAPGKEREFVAGINWSGRSQYYSESVKDRFTVSIDNAKNTVYLQMNSLKPEDTAVYYCAAERHLGVPTVRDDEYDDWGQGTQVTVSS	M⁻¹ s⁻¹	1.48e+06
NB211 (Fc fusion, not shown: IgG4 constant region of vector pCDNA3.4-IgG4) heavy: EVQVVETGGGLAQAGGSLRLSCAASGRTFSGYTVGWYRQSPGKEREFVAAISYSGGSTDYADSVKGRFTISRDNANNTVYLQMGSLKAEDTAVYYCNRVIRGTRDPSIYYVMDYWGKGTLVTVSS	M⁻¹ s⁻¹	2.26e+06
NB222 (Fc fusion, not shown: IgG4 constant region of vector pCDNA3.4-IgG4) heavy: QVQLVESGGGLVQAGGSLRLSCAASGGTFSNFNVGWFRQAPGKEREFVAASNWSAGTTHYSDSVKGRFTISRDNAANTAYLQMNSLRPDDTAVYYCNRVIRGTTYPDVYYGMDYWGKGTLVTVSS	M⁻¹ s⁻¹	2.05e+06
NB182 (Fc fusion, not shown: IgG4 constant region of vector pCDNA3.4-IgG4) heavy: QVQLVESGGGLVQAGGSLRLSCAASGDTSFISAAGWYRQAPGKERELVAAITNTGITYYPDSVKGRFTISRDNAKNTVYLQMNNLKPEDTAVYYCNAGAPPPGGLGYDESDYWGQGTQVTVSS	M⁻¹ s⁻¹	7380
NB734 (Fc fusion, not shown: IgG4 constant region of vector pCDNA3.4-IgG4) heavy: QVQLVETGGGLVQAGGSLRLSCAASGDTILFSAVGWHRQAPGKERELVAAITNSGVTYYADSVKGRFSISRDNAKNTVYLQMNSLKPEDTAVYYCNAGAPPPGEFGYDESDYWGQGTQVTVSS	M⁻¹ s⁻¹	236000

Ask: Which kon reading was recorded for the binder NB223 (Fc fusion, not shown: IgG4 constant region of vector pCDNA3.4-IgG4) heavy: EVQLVESGGGLVQAGGSLRLSCAASGRTFSSYGMGWFRQAPGKEREFVAAVNWSNSSAYYADSVKDRFTISSDNAKSTIYLQMNSLKPEDTAVYYCRPYSDYVTYDPDDYDYWGQGTQVTVSS ?
Result: 135000

Ask: Reported kon, binder NB532 (Fc fusion, not shown: IgG4 constant region of vector pCDNA3.4-IgG4) heavy: QVQLVETGGGLVQAGGSLRLSCAASGRTFSSYNMGWFRQAPGKEREFVAAISWSGGSQGYAAAVKDRFTISRDNAKNTVYLQMNSLKAEDTAVYYCAAKYHSGSYYYTSIRPEEYDYWGQGTQVTVSS : ____
Result: 131000

Ask: Please give the measured kon for this binder: NB173 (Fc fusion, not shown: IgG4 constant region of vector pCDNA3.4-IgG4) heavy: QVQLQESGGGLVQAGGSLRLSCAASGRSFNSYAMGWFRQAPGKEREFVAAISQNGGTQGYAEAVKDRFTISRDNTNKVVALQMNSLKPEDTAAYYCAADGDASDISYAPPRDYEYDYWGQGTQVTVSS
Result: 2150

Entry source: patent EP4269437A1
